From: patent US20220362249A1

Assay: Food effect on administration of sepiapterin: plasma sepiapterin and BH4 concentrations, fasted vs fed
Type: in vivo, human
Details: human, plasma, oral, 10 mg/kg, fed (high-fat meal); sepiapterin 10 mg/kg oral; 24 h; read-out: Concentration in Plasma, Median
Readout Kind: concentration at 24 h (nM)
# number only, unit nM dropped from output

>>> obs_value("C[C@H](O)[C@H](O)[C@H]1CNc2nc(N)[nH]c(=O)c2N1 [BH4, Tetrahydrobiopterin]")
16.1

Kindly review the next compound as well.
// field: concentration at 24 h; key: C[C@H](O)C(=O)C1=Nc2c(nc(N)[nH]c2=O)NC1 [sepiapterin, Sepiapterin] ; value = 0
